test system: Avena fatua (AVEFA); assay: Example A pre-emergence herbicidal activity, glasshouse pot test; format: in vivo; details: Rate 250 g/ha, evaluated 19 or 20 days later, read-out: Pre-Emergence Activity AVEFA (100=total damage to plant; 0=no damage to plant)
measure: pest or weed control at 250 g/ha (%)

compound: Cc1sc(-c2ccc(Cl)nc2)nc1C1C(=O)[C@@H]2[C@H](C1=O)[C@H]1CC[C@@H]2O1 (stereo partly drawn) [Compound T30]
reported.measurement: 30
//
compound: Cc1sc(-c2ccc(Cl)cc2)cc1C1=C(OC(=O)C(C)(C)C)[C@@H]2[C@H](C1=O)[C@H]1CC[C@@H]2O1 (racemic) [Compound P1]
reported.measurement: 0
//
compound: CCc1sc(-c2ccc(Cl)cc2)nc1C1C(=O)[C@H]2[C@@H]3CC[C@@](C)(O3)[C@H]2C1=O (mixture of isomers) [Compound T25]
reported.measurement: 90

====

// pest or weed control at 250 g/ha lookup, one value per entry
tested on: Lolium perenne (LOLPE); assay: Example A pre-emergence herbicidal activity, glasshouse pot test; assay type: in vivo; details: Rate 250 g/ha, evaluated 19 or 20 days later, read-out: Pre-Emergence Activity LOLPE (100=total damage to plant; 0=no damage to plant)
measure: pest or weed control at 250 g/ha (%)

compound: CCc1c(Br)sc(C)c1C1C(=O)[C@@H]2[C@H](C1=O)[C@H]1CC[C@@H]2O1 (stereo partly shown)
system.under.test: Lolium perenne (LOLPE)
reported.measurement: 100
//
compound: CCc1csc(CC)c1C1C(=O)[C@@H]2[C@H](C1=O)[C@H]1CC[C@@H]2O1 (stereo partly shown)
system.under.test: Lolium perenne (LOLPE)
reported.measurement: 10
//
compound: CCc1sc(-c2ccc(Cl)cc2)nc1C1C(=O)[C@@H]2[C@H](C1=O)[C@@]1(C)CC[C@]2(C)O1 (stereo partly shown)
system.under.test: Lolium perenne (LOLPE)
reported.measurement: 90
//
compound: CCc1sc(-c2ccc(Cl)cc2)nc1C1C(=O)[C@H]2[C@@H]3CC[C@@](C)(O3)[C@H]2C1=O (mixture of isomers)
system.under.test: Lolium perenne (LOLPE)
reported.measurement: 100

====

System: Avena fatua (AVEFA)
Assay: Example B post-emergence herbicidal activity, glasshouse pot test
Format: in vivo
Conditions: 312 h, rate 250 g/ha, evaluated after 13 days, read-out: Post-emergence activity AVEFA (100=total damage to plant; 0=no damage to plant)
Protocol: Seeds of a variety of test species were sown in standard soil in pots. […] After 13 days for pre and post-emergence, the test was evaluated (100=total damage to plant; 0=no damage to plant). […]
Here, each record is paired with measured pest or weed control at 250 g/ha data.
measure: pest or weed control at 250 g/ha (%)

compound: Cc1sc(-c2ccc(Br)cn2)nc1C1=C(OC(=O)C2CC2)[C@@H]2[C@H](C1=O)[C@H]1CC[C@@H]2O1 (racemic) [Compound P6]
unit.symbol: %
reported.measurement: 90
//
compound: Cc1sc(-c2ccc(OC(F)F)cc2)nc1C1C(=O)[C@@H]2[C@H](C1=O)[C@H]1CC[C@@H]2O1 (stereo partly drawn) [Compound T41]
unit.symbol: %
reported.measurement: 90
//
compound: CCc1sc(-c2ccc(Br)cc2C)nc1C1C(=O)[C@@H]2[C@H](C1=O)[C@H]1CC[C@@H]2O1 (stereo partly drawn) [Compound T35]
unit.symbol: %
reported.measurement: 100
//
compound: Cc1sc(-c2ccc(Br)cn2)nc1C1C(=O)[C@@H]2[C@H](C1=O)[C@H]1CC[C@@H]2O1 (stereo partly drawn) [Compound T38]
unit.symbol: %
reported.measurement: 90
//
compound: CSc1ccc(-c2nc(C3C(=O)[C@@H]4[C@H](C3=O)[C@H]3CC[C@@H]4O3)c(C)s2)cc1 (stereo partly drawn) [Compound T48]
unit.symbol: %
reported.measurement: 40
//
compound: CCc1sc(-c2ccc(Br)cc2C)nc1C1=C(OC(=O)c2ccc(Cl)cc2)[C@@H]2[C@H](C1=O)[C@H]1CC[C@@H]2O1 (racemic) [Compound P8]
unit.symbol: %
reported.measurement: 100
//
compound: Cc1sc(-c2ccc(OC(F)F)cc2Cl)nc1C1=C(OC(=O)C(C)(C)C)[C@@H]2[C@H](C1=O)[C@H]1CC[C@@H]2O1 (racemic) [Compound P9]
unit.symbol: %
reported.measurement: 90
//
compound: Cc1cc(Br)ccc1-c1nc(C2=C(OC(=O)C(C)(C)C)[C@@H]3[C@H](C2=O)[C@H]2CC[C@@H]3O2)c(C)s1 (racemic) [Compound P7]
unit.symbol: %
reported.measurement: 100
//
compound: CCc1sc(-c2ccc(OC(F)F)cc2)nc1C1C(=O)[C@@H]2[C@H](C1=O)[C@H]1CC[C@@H]2O1 (stereo partly drawn) [Compound T42]
unit.symbol: %
reported.measurement: 100
//
compound: CCc1sc(-c2ccc(Cl)cc2)nc1C1=C(OC(=O)C2CC2)[C@@H]2[C@H](C1=O)[C@H]1CC[C@@H]2O1 (racemic) [Compound P4]
unit.symbol: %
reported.measurement: 100
//
compound: Cc1sc(-c2ccc(I)cc2)nc1C1C(=O)[C@@H]2[C@H](C1=O)[C@H]1CC[C@@H]2O1 (stereo partly drawn) [Compound T33]
unit.symbol: %
reported.measurement: 100
//
compound: CCc1sc(-c2ccc(Br)cn2)nc1C1C(=O)[C@@H]2[C@H](C1=O)[C@H]1CC[C@@H]2O1 (stereo partly drawn) [Compound T43]
unit.symbol: %
reported.measurement: 100
//
compound: CCc1sc(-c2cc(F)c(Cl)cc2Cl)nc1C1C(=O)[C@@H]2[C@H](C1=O)[C@H]1CC[C@@H]2O1 (stereo partly drawn) [Compound T47]
unit.symbol: %
reported.measurement: 100
//
compound: CCc1sc(-c2ccc(Cl)cc2)nc1C1=C(OC(=O)C(C)(C)C)[C@@H]2[C@H](C1=O)[C@H]1CC[C@@H]2O1 (racemic) [Compound P3]
unit.symbol: %
reported.measurement: 100
//
compound: Cc1sc(-c2cccs2)nc1C1C(=O)[C@@H]2[C@H](C1=O)[C@H]1CC[C@@H]2O1 (stereo partly drawn) [Compound T32]
unit.symbol: %
reported.measurement: 0
//
compound: Cc1sc(-c2ccc(C(C)C)cc2)nc1C1C(=O)[C@@H]2[C@H](C1=O)[C@H]1CC[C@@H]2O1 (stereo partly drawn) [Compound T51]
unit.symbol: %
reported.measurement: 80
//
compound: CC(=O)OC1=C(c2nc(-c3ccc(OC(F)F)cc3F)sc2C)C(=O)[C@H]2[C@@H]1[C@@H]1CC[C@H]2O1 (racemic) [Compound P10]
unit.symbol: %
reported.measurement: 100
//
compound: Cc1ccc(-c2nc(C3C(=O)[C@@H]4[C@H](C3=O)[C@H]3CC[C@@H]4O3)c(C)s2)cc1 (stereo partly drawn) [Compound T20]
unit.symbol: %
reported.measurement: 100
